Protocol: Solubility in PBS
Assay type: physicochemical
Condition Description: Solubility (uM)
Catalogue of Solubility values
Observation Type: Solubility (µM)

INSERT INTO assay_data (molecule, observation_type, observed_result) VALUES
  ('CC(=O)N1CCC[C@]12CC=CCCCC1(CCCC=CCCCCCC[C@@](C)(C(=O)N[C@@H](Cc3ccccc3)C(=O)N[C@@H](Cc3csc4ccccc34)C(=O)N[C@@H](Cc3c[nH]cn3)C(N)=O)NC(=O)[C@H](CCC(N)=O)NC(=O)[C@H](Cc3ccccc3)NC(=O)[C@H](C)NC(=O)[C@H](C)NC(=O)[C@H](CCC(=O)O)NC(=O)[C@H](CC(=O)O)NC1=O)NC(=O)[C@H](CC(F)(F)F)NC(=O)[C@H](CC(=O)O)NC2=O (some centres unmarked)', 'Solubility', 18),
  ('CC(=O)N1CCC[C@H]1C(=O)N[C@@H](CC(=O)O)C(=O)N[C@@H](CC1CCCCC1)C(=O)N[C@]1(C)CCCC=CCCCOC(=O)N2CC[C@@](C(=O)N[C@@H](Cc3ccccc3Cl)C(=O)N[C@@H](Cc3csc4ccccc34)C(=O)N[C@@H](CO)C(N)=O)(C2)NC(=O)[C@H]([C@@H](C)O)NC(=O)[C@H](Cc2ccccc2)NC(=O)[C@H](C)NC(=O)[C@H](C)NC(=O)[C@H](CC(=O)O)NC(=O)[C@H](CC(=O)O)NC1=O', 'Solubility', 45),
  ('CC(=O)N1CCC[C@]12CC=CCCCC1(CCCC=CCCCCCC[C@@](C)(C(=O)N[C@@H](Cc3ccccc3F)C(=O)N[C@@H](Cc3csc4ccccc34)C(=O)N[C@@H](CCC(N)=O)C(N)=O)NC(=O)[C@H](CC(N)=O)NC(=O)[C@H](Cc3ccccc3)NC(=O)[C@H](C)NC(=O)[C@H](C)NC(=O)[C@H](CCC(=O)O)NC(=O)[C@H](CC(=O)O)NC1=O)NC(=O)[C@H](C)NC(=O)[C@H](CC(=O)O)NC2=O (some centres unmarked)', 'Solubility', 20),
  ('CC(=O)N1CCC[C@]12CC=CCCCC1(CCCC=CCCCOC(=O)N3CC[C@@](C(=O)N[C@@H](Cc4ccsc4)C(=O)N[C@@H](Cc4csc5ccccc45)C(=O)N[C@@H](Cc4c[nH]cn4)C(N)=O)(C3)NC(=O)[C@H](CC(N)=O)NC(=O)[C@H](Cc3ccccc3)NC(=O)[C@H](C)NC(=O)[C@H](C)NC(=O)[C@H](CCC(N)=O)NC(=O)[C@H](CC(=O)O)NC1=O)NC(=O)[C@H](CC(C)(C)C)NC(=O)[C@H](CC(=O)O)NC2=O (some centres unmarked)', 'Solubility', 13),
  ('CC(=O)N1CCC[C@]12CC=CCCCC1(CCCC=CCCCOC(=O)N3CC[C@@](C(=O)N[C@@H](Cc4ccsc4)C(=O)N[C@@H](Cc4csc5ccccc45)C(=O)N[C@@H](Cc4c[nH]cn4)C(N)=O)(C3)NC(=O)[C@H](CCO)NC(=O)[C@H](Cc3ccccc3)NC(=O)[C@H](C)NC(=O)[C@H](C)NC(=O)[C@H](CC(=O)O)NC(=O)[C@H](CC(=O)O)NC1=O)NC(=O)[C@H](CC(C)(C)C)NC(=O)[C@H](CC(=O)O)NC2=O (some centres unmarked)', 'Solubility', 44);
